Biological target: RARgamma (Homo sapiens)
Sequence (P13631 185-419 limits assumed): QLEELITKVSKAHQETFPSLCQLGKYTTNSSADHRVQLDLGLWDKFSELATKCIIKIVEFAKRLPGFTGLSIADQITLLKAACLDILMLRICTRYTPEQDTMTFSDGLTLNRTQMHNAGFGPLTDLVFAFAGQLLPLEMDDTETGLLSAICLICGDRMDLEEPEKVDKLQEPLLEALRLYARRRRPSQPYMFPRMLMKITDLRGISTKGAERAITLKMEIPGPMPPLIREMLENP
Assay: Transactivation assay (luciferase reporter, HeLa stable transfectants), RARgamma
Conditions: apparent Kd from Schild regression, crossed curves against reference antagonist, HeLa cells; read-out: RARgamma Kdapp
pKd: −log10 of the molar value.

[
  {
    "Compound": "CC1(C)OCC(COc2ccc(-c3ccc4cc(C(=O)O)ccc4c3)cc2C23CC4CC(CC(C4)C2)C3)O1 (stereo not shown)",
    "pKd": 5.40
  }
]
